# ASSAY_PROTOCOL: Plasma pharmacokinetics of HSP990 after oral dosing
# Assay type: in vivo, human
# TEST_CONTEXT: 25 mg twice-weekly, day 22
MEASURED_METRIC: AUClast (ng·h/mL)
Numbers only, in ng·h/mL.

Tell us which AUClast value is on record for COc1cccc(-c2cc(F)ccc2[C@H]2Cc3nc(N)nc(C)c3C(=O)N2)n1 [HSP990]
14200
